test system: Xanthium strumarium (XANST); test: B2 Post-Emergence Efficacy - Test 2; type: in vivo; conditions: 60 g/Ha, 15 days after application, 0-100 scale
MEASUREMENT_TYPE: Herbicidal activity XANST

Cc1nn(C)c(=O)c(-c2c(F)ccc(Cl)c2CCc2ccc(C#N)cc2)c1O :: 80
Cc1nn(C)c(=O)c(-c2c(F)ccc(Cl)c2CCc2ccc(Cl)cc2)c1OC(=O)C(C)C :: 80
Cc1nn(C)c(=O)c(-c2c(F)ccc(Cl)c2CCc2ccc(F)cc2)c1OC(=O)C(C)C :: 90
Cc1nn(C)c(=O)c(-c2c(F)ccc(Cl)c2CCc2ccc(F)cc2)c1O :: 90

Qu. Look up Herbicidal activity XANST for this compound: "Cc1nn(C)c(=O)c(-c2c(F)ccc(Cl)c2CCc2ccccc2C(F)(F)F)c1O"
Ans. 90
